Let's look at some molecules and their measured pIC50.
Biological target: UniProt:P29275
Sequence (P29275 whole entry): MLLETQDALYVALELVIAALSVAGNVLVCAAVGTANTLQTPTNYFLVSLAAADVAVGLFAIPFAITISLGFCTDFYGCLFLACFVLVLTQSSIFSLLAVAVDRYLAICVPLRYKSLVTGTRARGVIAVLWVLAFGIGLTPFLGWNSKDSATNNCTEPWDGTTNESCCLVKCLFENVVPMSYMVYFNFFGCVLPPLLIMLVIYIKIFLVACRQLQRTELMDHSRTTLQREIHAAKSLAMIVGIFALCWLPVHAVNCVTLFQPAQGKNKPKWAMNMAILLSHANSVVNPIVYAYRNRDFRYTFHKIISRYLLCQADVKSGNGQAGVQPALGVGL
Test: Antagonist activity at human adenosine A2B receptor expressed in CHO cells assessed as inhibition of adenosine-induced cAMP production
pIC50 field: float, defined as -log10 of concentration (mol/L).

CCN(C(C)=O)c1ccc(OC)c2nc(NC(=O)c3ccc(-n4cccn4)cc3)sc12
7.68
COc1ccc(N(CC(=O)O)C(C)=O)c2sc(NC(=O)c3ccc(F)cc3)nc12
5.22
CCN(C(C)=O)c1ccc(OC)c2nc(NC(=O)c3ccc(CN4CCCC4=O)cc3)sc12
7.55

What value of pIC50 has been reported for the following molecule? CCN(C(C)=O)c1ccc(OC)c2nc(NC(=O)c3cnn(C)c3)sc12 7.54

What value of pIC50 has been reported for the following molecule? CCN(C(C)=O)c1ccc(OC)c2nc(NC(=O)c3ccc(C(=O)OC)cc3)sc12 7.46

What value of pIC50 has been reported for the following molecule? CCN(C(C)=O)c1ccc(OC)c2nc(NC(=O)c3ccnn3C)sc12 7.68

What value of pIC50 has been reported for the following molecule? CCN(C(C)=O)c1ccc(OC)c2nc(NC(=O)c3cnn(Cc4cccc(F)c4)c3)sc12 7.92

What value of pIC50 has been reported for the following molecule? CCN(C(C)=O)c1ccc(OC)c2nc(NC(=O)c3cnn(Cc4cccc(C(F)(F)F)c4)c3)sc12 8.22

What value of pIC50 has been reported for the following molecule? COc1ccc(N(CC(N)=O)C(C)=O)c2sc(NC(=O)c3ccc(F)cc3)nc12 7.22

====

Target sequence: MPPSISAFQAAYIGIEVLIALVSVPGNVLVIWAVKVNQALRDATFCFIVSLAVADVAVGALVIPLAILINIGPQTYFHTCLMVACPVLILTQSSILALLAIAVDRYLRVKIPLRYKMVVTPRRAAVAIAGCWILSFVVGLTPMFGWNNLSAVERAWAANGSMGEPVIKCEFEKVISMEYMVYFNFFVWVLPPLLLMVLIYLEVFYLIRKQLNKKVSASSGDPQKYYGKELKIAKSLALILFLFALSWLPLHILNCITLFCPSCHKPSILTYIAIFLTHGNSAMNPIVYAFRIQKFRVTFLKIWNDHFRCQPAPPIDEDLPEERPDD
Assay metric: Ki (nM)
Report as a plain number; the unit nM is understood.

Example compounds with recorded Ki:
CCN(C(C)=O)c1ccc(OC)c2nc(NC(=O)c3ccc(C(=O)N4CCOCC4)cc3)sc12
160
CCN(C(C)=O)c1ccc(OC)c2nc(NC(=O)c3ccc(C(=O)N4CCN(C)CC4)cc3)sc12
120
CCN(C(C)=O)c1ccc(OC)c2nc(NC(=O)c3ccc(-n4cccn4)cc3)sc12
78

Then there is this compound:
What value of Ki has been reported for the following compound? CCN(C(C)=O)c1ccc(OC)c2nc(NC(=O)c3ccnn3C)sc12 100
